Reported T/C by item:
System: CD2F1 mice, L1210 leukemia ip, survival T/C
Experiment: NCI In Vivo Anticancer Drug Screen. Data for tumor model L1210 Leukemia (intraperitoneal) in CD2F1 (CDF1) mice
Settings: endpoint: mean survival time; dose: 200.0 mg/kg/injection; schedule: Q04DX002 (ip); vehicle: saline with Tween-80; higher = longer survival
Inconclusive results and toxic doses are left out.

Use the examples below as a reference point.
CCC(CCc1ccc(OC)c(OC)c1)C(=O)O (centres undefined) ... 102 % of control
CC1CCC2[S][Sn]3([NH]C2C1)[NH]C1CC(C)CCC1[S]3 (centres undefined) ... 111 % of control
O=C(c1ccccc1)C1CC1C(=O)c1ccccc1 (centres undefined) ... 112 % of control
CN(C)C(=O)Sc1ccc(N(C)C)cc1 ... 107 % of control
COc1c(C)c2c(c(OC(C)=O)c1CC(=O)O)C(=O)OC2 ... 100 % of control

Let's switch to this compound now.
Quick one: T/C for CC(=O)OC1C(OC(C)=O)C(OC(C)=O)C(OC(C)=O)C(OC(C)=O)C1OC(C)=O (centres undefined) ? 86 % of control

---

System: CD2F1 mice, L1210 leukemia ip, survival T/C
Assay: NCI In Vivo Anticancer Drug Screen. Data for tumor model L1210 Leukemia (intraperitoneal) in CD2F1 (CDF1) mice
Details: endpoint: mean survival time; dose: 200.0 mg/kg/injection; schedule: Q01DX001 (ip); vehicle: saline with Tween-80; higher = longer survival
Toxic doses and inconclusive results are not listed.
Parameter: T/C

CC1=CC(O)(c2ccccc2)C(C)=CC1=O (centres undefined) ... 97 % of control
CCC(=O)Nc1cccc(OC(=O)NC(C)(C)CC(C)(C)C)c1 ... 98 % of control
COC(=O)Nc1nc2ccccc2[nH]1 ... 91 % of control
O=C(CCCCCCCCC(=O)N/N=C/c1ccc(Cl)c(Cl)c1)N/N=C/c1ccc(Cl)c(Cl)c1 ... 95 % of control
FCCc1cccc(C(F)(F)F)c1 ... 101 % of control
Cc1ccc(NC(=O)Nc2cccc(NC(=O)COc3ccc(Cl)cc3C(=O)O)c2)cc1S(=O)(=O)F ... 86 % of control
O=C(/C=C/c1ccccc1)NC(=S)NCc1ccccc1 ... 88 % of control
S=c1sc2ccccc2n1CN1CCCCC1 ... 100 % of control

Quick one: T/C for CCOc1ccc(NC(=O)OCC(C)C)cc1 ? 101 % of control

Also CC1(Br)C(C)(Br)C(C)(Br)C(C)(Br)C(C)(Br)C1(C)Br (centres undefined) , if possible. 101 % of control

---

Test system: CD2F1 mice, L1210 leukemia ip, survival T/C
Test: NCI In Vivo Anticancer Drug Screen. Data for tumor model L1210 Leukemia (intraperitoneal) in CD2F1 (CDF1) mice
Details: endpoint: mean survival time; dose: 200.0 mg/kg/injection; schedule: Q01DX009 (ip); vehicle: water; higher = longer survival
Inconclusive results and toxic doses are left out.
Reported T/C by item:

Use the examples below as a reference point.
COc1cc2c(cc1OC)C(C#N)N(C(=O)c1ccccc1)C=C2 (stereo not given) ... 94 % of control
COC(=O)/C=C/CNC(C)C ... 101 % of control
COCC(O)Cn1ccnc1[N+](=O)[O-] (stereo not given) ... 103 % of control
NCCS(=O)(=O)O ... 86 % of control

Let's switch to this compound now.
API: value(readout=T/C, system=CD2F1 mice, L1210 leukemia ip, survival T/C) for record CN(C)/N=N/c1nc[nH]c1C(N)=O 118 % of control

---

Reported T/C by item:
System: CD2F1 mice, L1210 leukemia ip, survival T/C
Test: NCI In Vivo Anticancer Drug Screen. Data for tumor model L1210 Leukemia (intraperitoneal) in CD2F1 (CDF1) mice
Settings: endpoint: mean survival time; dose: 200.0 mg/kg/injection; schedule: Q01DX001 (ip); vehicle: saline with Tween-80; higher = longer survival
Inconclusive results and toxic doses are left out.

C/C=C(/Cl)C(=O)O ... 101 % of control
COc1ccc(NC(C)=O)c(O)c1OC ... 92 % of control
Nc1nc(=O)n(CCCOc2cccc([N+](=O)[O-])c2)cc1-c1ccccc1 ... 87 % of control
Cc1ccc(S(=O)(=O)N/N=C/c2ccc(Cl)s2)cc1 ... 97 % of control
O=[N+]([O-])c1ccc2nsnc2c1 ... 106 % of control

API: value(readout=T/C, system=CD2F1 mice, L1210 leukemia ip, survival T/C) for record c1cnc2c(OB(C3CCCCC3)C3CCCCC3)cccc2c1 91 % of control

Also O=C(O)CCC(=O)NNC(=O)c1cccnc1 , if possible. 106 % of control

---

System: CD2F1 mice, L1210 leukemia ip, survival T/C
Assay: NCI In Vivo Anticancer Drug Screen. Data for tumor model L1210 Leukemia (intraperitoneal) in CD2F1 (CDF1) mice
Settings: endpoint: mean survival time; dose: 100.0 mg/kg/injection; schedule: Q01DX009 (ip); vehicle: Klucel (hydroxypropylcellulose) (HPC); higher = longer survival
Inconclusive results and toxic doses are left out.
Parameter: T/C

CC(=O)N(C)c1ccc(NC(=O)Nc2ccc(C)cc2[N+](=O)[O-])cc1 ... 95 % of control

Quick one: T/C for COC(=O)c1ccn2c1CCC2 ? 91 % of control

Also O=[N+]([O-])c1ccc(N=Cc2ccc3c(c2)OCO3)cc1 , if possible. 96 % of control

Also CC(C)=NNS(=O)(=O)c1ccc(C)cc1 , if possible. 93 % of control

Also CC12CCC(C/C1=C\C#N)C(C)(C)O2 (stereo unspecified) , if possible. 94 % of control

Also CC(=O)O[C@H]1CC[C@@]2(C)C(=CC[C@H]3[C@@H]4CC[C@H](O)[C@@]4(C)CC[C@@H]32)C1 , if possible. 97 % of control

Also CC(C)CC(=O)NC(C(=O)NC(C(=O)NC(CC(C)C)C(O)CC(=O)NC(C)C(=O)NC(CC(C)C)C(O)CC(=O)O)C(C)C)C(C)C (stereo unspecified) , if possible. 97 % of control

---

Tested on: CD2F1 mice, L1210 leukemia ip, survival T/C
Experiment: NCI In Vivo Anticancer Drug Screen. Data for tumor model L1210 Leukemia (intraperitoneal) in CD2F1 (CDF1) mice
Conditions: endpoint: mean survival time; dose: 200.0 mg/kg/injection; schedule: Q01DX009 (ip); vehicle: saline with Tween-80
Toxic doses and inconclusive results are not listed. Rule for the calls: active = survival T/C of 150% or more; inactive = T/C below 125% in these data.
In this exercise, the only acceptable responses are active, inactive

Check out these entries, answers already filled in.
Cc1cc(=O)[nH][nH]c1=O ... inactive
O=C(OC1COC(OC(=O)c2ccccc2)C(OC(=O)c2ccccc2)C1OC(=O)c1ccccc1)c1ccccc1 (stereo not drawn) ... inactive
O=C1CCCCCC2CC12 (stereo not drawn) ... inactive

Dear colleague, could you share the recorded outcome for Nc1c(Cl)cccc1Cl (tested in a mixture with another compound) when you have a moment? inactive

Also O=[N+]([O-])c1ccccc1CSc1ncnc2nc[nH]c12 , if possible. active

Also O=C1NC(=O)C2CC=CCC12 (stereo not drawn) , if possible. inactive

Also CC(=O)Nc1ccccc1OC(=O)OCC(Cl)(Cl)Cl , if possible. inactive

---

Test system: CD2F1 mice, L1210 leukemia ip, survival T/C
Test: NCI In Vivo Anticancer Drug Screen. Data for tumor model L1210 Leukemia (intraperitoneal) in CD2F1 (CDF1) mice
Conditions: endpoint: mean survival time; dose: 200.0 mg/kg/injection; schedule: Q04DX003 (ip); vehicle: saline with Tween-80; higher = longer survival
Inconclusive results and toxic doses are left out.
Parameter: T/C

O=P(Oc1ccccc1)(c1ccccc1)c1ccccc1 ... 95 % of control
C(=C\c1ccncc1)/c1ccccc1 ... 92 % of control

Quick one: T/C for O=C(COc1ccccc1)Nc1ccc([N+](=O)[O-])cc1 ? 99 % of control

Also O=S(=O)(Oc1ccccc1)c1ccc(Cl)cc1 , if possible. 96 % of control

Also CCOC(=O)CCC(NC(=O)c1ccc(N(C=O)CCOC=O)cc1)C(=O)OCC (centres undefined) , if possible. 96 % of control

Also O=C(Nc1ccc2c3c(ccc(C(=O)Nc4ccccc4)c13)CC2)c1ccccc1 , if possible. 100 % of control

Also N/C(=C\C(=O)c1ccccc1)c1ccccc1 , if possible. 107 % of control

---

System: CD2F1 mice, L1210 leukemia ip, survival T/C
Experiment: NCI In Vivo Anticancer Drug Screen. Data for tumor model L1210 Leukemia (intraperitoneal) in CD2F1 (CDF1) mice
Details: endpoint: mean survival time; dose: 400.0 mg/kg/injection; schedule: Q01DX009 (ip); vehicle: saline with Tween-80; higher = longer survival
Inconclusive results and toxic doses are left out.
Parameter: T/C

Use the examples below as a reference point.
COc1ccc(OC)c(C=NCCN=Cc2cc(OC)ccc2OC)c1 ... 87 % of control
COC(=O)c1ccccc1Nc1c2ccc(Cl)cc2nc2c1c(C)nn2C ... 97 % of control
COc1ccc(OC)c(NC(=O)C2CC2)c1 ... 98 % of control

Quick one: T/C for O=C(CC(c1ccc(Cl)cc1)P(=O)(c1ccccc1)c1ccccc1)c1ccccc1 (centres undefined) ? 97 % of control

Also CC(Oc1ccccc1)C(=O)c1ccccc1 (centres undefined) , if possible. 96 % of control

Also Cc1ccc(S(N)(=O)=O)cc1 , if possible. 102 % of control

Also CC(C)OC(=O)Nc1cc(C(F)(F)F)cc(C(F)(F)F)c1 , if possible. 92 % of control

Also c1ccc(-c2cc(-c3ccccc3)n(-c3ccccc3)c2-c2ccccc2)cc1 , if possible. 88 % of control

Also CCOC(=O)CC1(C)C(=O)NC(=O)N1C(C)=O (centres undefined) , if possible. 116 % of control
